Target: T1, HMG1 purified from calf (bovine) thymus (bovine, UniProt P10103 2-215)
T1 construct: also called Calf thymus HMGB1; thymus HMG1
T1 sequence (looked up): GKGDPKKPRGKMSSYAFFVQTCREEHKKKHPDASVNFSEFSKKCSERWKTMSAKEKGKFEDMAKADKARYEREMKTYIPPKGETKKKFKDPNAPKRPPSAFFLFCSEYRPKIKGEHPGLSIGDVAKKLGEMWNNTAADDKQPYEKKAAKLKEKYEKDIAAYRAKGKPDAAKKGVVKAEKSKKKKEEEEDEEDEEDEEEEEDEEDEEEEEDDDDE
Experiment: direct ELISA, calf thymus HMGB1 coated at 5 ug/mL, antibody at 10 ug/mL, anti-human kappa/lambda-HRP, OD 490
Value kind: binding result

- Binder: "human anti-HMG1 antibody G35 (antibody, IgG1, V domains shown, full length IgG1 made from a human Fab phage clone) VH: EVQLLESGGGLVQPGGSLRLSCAASGFTFSWYKMVWVRQAPGKGLEWVSSIVPSGGITIYADSVKGRFTISRDNSKNTLYLQMNSLRAEDTAVYYCARVQQWLGRPYFDYWGQGTLVTVSS VL: DIQMTQSPLSLPVTPGEPASISCRSSQSLLHGNGYNYLDWYLQRPGQSPQLLIYSGSNRASGVPDRFSGSGSGTDFTLKISRVEAEDVGVYYCMQSLQSRTFGQGTKVEIK"
  Value kind: "binding result"
  Measured result: "binds"
- Binder: "human anti-HMG1 antibody G4 (antibody, IgG1, V domains shown, full length IgG1 made from a human Fab phage clone; also called ATCC PTA-6258) VH: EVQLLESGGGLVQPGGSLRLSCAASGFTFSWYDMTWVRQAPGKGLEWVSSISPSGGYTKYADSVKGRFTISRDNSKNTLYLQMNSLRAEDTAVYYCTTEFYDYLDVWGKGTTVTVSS VL: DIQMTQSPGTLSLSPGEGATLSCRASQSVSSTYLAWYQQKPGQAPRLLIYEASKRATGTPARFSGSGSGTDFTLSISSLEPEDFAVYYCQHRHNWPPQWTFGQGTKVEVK"
  Value kind: "binding result"
  Measured result: "binds"
- Binder: "human anti-HMG1 antibody S14 (antibody, IgG1, V domains shown, full length IgG1 made from a human Fab phage clone) VH: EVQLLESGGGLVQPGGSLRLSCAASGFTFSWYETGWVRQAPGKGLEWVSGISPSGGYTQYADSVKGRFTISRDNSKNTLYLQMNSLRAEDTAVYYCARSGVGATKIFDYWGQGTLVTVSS VL: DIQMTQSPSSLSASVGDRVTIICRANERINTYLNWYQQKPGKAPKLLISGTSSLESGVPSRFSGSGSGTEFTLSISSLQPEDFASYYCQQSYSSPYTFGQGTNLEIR"
  Value kind: "binding result"
  Measured result: "binds"
